biological target: PKC-α (Homo sapiens); test: ELISA-based competitive binding assay with purified PKC isoform; set-up: key: —: no detectable affinity; Low to very low affinity at 10X or 20X or both PRE concentrations in at least one cell line in the cell extract assay; Low affinity in purified isoform assay.; Moderate affinity at 10X or 20X or both PRE concentrations in at least one cell line in the cell extract assay.; High affinity at 10X or 20X or both PRE concentrations in at least one cell line in the cell extract assay; High affinity in purified isoform assay; conditions: Purified isoform
[ ]: non-standard residue; d: D form.
Quantity Kind: Affinity for PKC isoform α

Here is how some substances turned out for Affinity for PKC isoform α.
Substance	Quantity Kind	Recorded Result
Ac-ISIGILQNADK-NH2 (not fully specified; printed as Ac-ISIGILQNADK-NH2) [PRE 7]	Affinity for PKC isoform α	L
RRKKGGKDFVVKR [PRE 1]	Affinity for PKC isoform α	—
Ac-RDAQNLI-NH2 [PRE 13]	Affinity for PKC isoform α	—
Ac-ISIGILNQADK-NH2 [PRE 10]	Affinity for PKC isoform α	—
Ac-KDANQLIGISI-NH2 [PRE 6]	Affinity for PKC isoform α	—
Ac-KDAQNLI-NH2 [PRE 12]	Affinity for PKC isoform α	—

Given Ac-RDAQNLIGISI-NH2 [PRE 11] , report its Affinity for PKC isoform α on PKC-α (Homo sapiens).
L

Given Ac-isigilqnadk-NH2 (Ac-[dI][dS][dI]G[dI][dL][dQ][dN][dA][dD][dK]-NH2; SMILES CC[C@@H](C)[C@@H](NC(C)=O)C(=O)N[C@H](CO)C(=O)N[C@@H](C(=O)NCC(=O)N[C@@H](C(=O)N[C@H](CC(C)C)C(=O)N[C@H](CCC(N)=O)C(=O)N[C@H](CC(N)=O)C(=O)N[C@H](C)C(=O)N[C@H](CC(=O)O)C(=O)N[C@H](CCCCN)C(N)=O)[C@H](C)CC)[C@H](C)CC) [PRE 9] , report its Affinity for PKC isoform α on PKC-α (Homo sapiens).
—

Given ILEDKGGDAQNLIGISI [PRE 8] , report its Affinity for PKC isoform α on PKC-α (Homo sapiens).
—

---

Molecular target: PKC-ε (Homo sapiens, UniProt Q02156)
Sequence (Q02156 1-737): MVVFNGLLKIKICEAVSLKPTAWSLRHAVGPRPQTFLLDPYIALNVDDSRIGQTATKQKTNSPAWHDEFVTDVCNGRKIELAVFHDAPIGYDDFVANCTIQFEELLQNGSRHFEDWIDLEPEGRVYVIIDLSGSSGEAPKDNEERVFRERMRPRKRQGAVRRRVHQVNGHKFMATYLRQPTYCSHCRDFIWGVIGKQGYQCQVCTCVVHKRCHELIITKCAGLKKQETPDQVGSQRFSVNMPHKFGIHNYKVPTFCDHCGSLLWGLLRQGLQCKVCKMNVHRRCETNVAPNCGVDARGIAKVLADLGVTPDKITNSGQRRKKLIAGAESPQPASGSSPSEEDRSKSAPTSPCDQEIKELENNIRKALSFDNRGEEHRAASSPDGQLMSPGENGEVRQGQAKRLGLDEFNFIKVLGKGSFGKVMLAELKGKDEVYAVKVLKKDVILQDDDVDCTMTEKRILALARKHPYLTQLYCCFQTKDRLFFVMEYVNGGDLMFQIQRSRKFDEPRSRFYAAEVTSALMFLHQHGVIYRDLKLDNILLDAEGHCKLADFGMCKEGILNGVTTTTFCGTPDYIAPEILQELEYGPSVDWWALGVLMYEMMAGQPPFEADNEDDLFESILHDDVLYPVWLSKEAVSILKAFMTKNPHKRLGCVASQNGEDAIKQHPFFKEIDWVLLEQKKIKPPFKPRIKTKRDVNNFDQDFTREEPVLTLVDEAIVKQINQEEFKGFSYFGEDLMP
Test: Competitive binding assay using cell extracts (Western blot)
Parameters: cytoplasmic extracts from different cell lines expressing appropriate PKC isoforms; endogenous in cells; host or cells: CCD16Lu, LnCAP, Du145, MDAMB231, LS180; key: —: no detectable affinity; Low to very low affinity at 10X or 20X or both PRE concentrations in at least one cell line in the cell extract assay; Low affinity in purified isoform assay.; Moderate affinity at 10X or 20X or both PRE concentrations in at least one cell line in the cell extract assay.; High affinity at 10X or 20X or both PRE concentrations in at least one cell line in the cell extract assay; High affinity in purified isoform assay
Conditions: Cell extract; PRE 10X or 20X antibody concentration
[ ]: non-standard residue; d: D form.
Quantity Kind: Affinity for PKC isoform ε

Here is how some substances turned out for Affinity for PKC isoform ε.
Substance	Affinity for PKC isoform ε
Ac-RDAQNLI-NH2 [PRE 13]	—
Ac-RDAQNLIGISI-NH2 [PRE 11]	—
Ac-isigilqnadk-NH2 (Ac-[dI][dS][dI]G[dI][dL][dQ][dN][dA][dD][dK]-NH2; SMILES CC[C@@H](C)[C@@H](NC(C)=O)C(=O)N[C@H](CO)C(=O)N[C@@H](C(=O)NCC(=O)N[C@@H](C(=O)N[C@H](CC(C)C)C(=O)N[C@H](CCC(N)=O)C(=O)N[C@H](CC(N)=O)C(=O)N[C@H](C)C(=O)N[C@H](CC(=O)O)C(=O)N[C@H](CCCCN)C(N)=O)[C@H](C)CC)[C@H](C)CC) [PRE 9]	M/L
ILEDKGGDAQNLIGISI [PRE 8]	L
Ac-ISIGILNQADK-NH2 [PRE 10]	M/L
Ac-KDANQLIGISI-NH2 [PRE 6]	M
Ac-KDAQNLI-NH2 [PRE 12]	—

Next:
Find the measured Affinity for PKC isoform ε of Ac-ISIGILQNADK-NH2 (not fully specified; printed as Ac-ISIGILQNADK-NH2) [PRE 7] and report it.
—

---

target: PKC-δ (Homo sapiens); assay: ELISA-based competitive binding assay with purified PKC isoform; set-up: key: —: no detectable affinity; Low to very low affinity at 10X or 20X or both PRE concentrations in at least one cell line in the cell extract assay; Low affinity in purified isoform assay.; Moderate affinity at 10X or 20X or both PRE concentrations in at least one cell line in the cell extract assay.; High affinity at 10X or 20X or both PRE concentrations in at least one cell line in the cell extract assay; High affinity in purified isoform assay; conditions: Purified isoform
Sequence (Q05655 whole entry, canonical isoform): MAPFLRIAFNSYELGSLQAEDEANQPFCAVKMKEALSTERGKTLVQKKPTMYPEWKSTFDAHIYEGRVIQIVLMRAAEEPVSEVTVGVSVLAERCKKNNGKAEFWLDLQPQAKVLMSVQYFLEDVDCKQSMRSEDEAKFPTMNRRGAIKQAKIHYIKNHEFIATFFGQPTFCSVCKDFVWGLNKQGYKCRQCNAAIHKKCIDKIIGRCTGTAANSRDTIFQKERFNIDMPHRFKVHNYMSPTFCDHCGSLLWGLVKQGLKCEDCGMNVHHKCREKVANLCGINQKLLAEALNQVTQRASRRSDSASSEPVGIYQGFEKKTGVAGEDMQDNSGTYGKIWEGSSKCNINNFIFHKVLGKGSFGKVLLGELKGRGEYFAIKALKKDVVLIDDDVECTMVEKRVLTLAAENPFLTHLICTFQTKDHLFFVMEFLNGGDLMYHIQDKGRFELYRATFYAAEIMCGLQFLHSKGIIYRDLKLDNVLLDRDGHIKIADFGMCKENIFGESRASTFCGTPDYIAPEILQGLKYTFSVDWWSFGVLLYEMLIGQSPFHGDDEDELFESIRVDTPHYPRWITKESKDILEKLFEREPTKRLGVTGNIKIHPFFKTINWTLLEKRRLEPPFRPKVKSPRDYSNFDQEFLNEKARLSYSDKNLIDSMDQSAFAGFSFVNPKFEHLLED
[ ]: non-standard residue; d: D form.
Quantity Kind: Affinity for PKC isoform δ

Substance	Recorded Result
Ac-RDAQNLI-NH2 [PRE 13]	L
Ac-isigilqnadk-NH2 (Ac-[dI][dS][dI]G[dI][dL][dQ][dN][dA][dD][dK]-NH2; SMILES CC[C@@H](C)[C@@H](NC(C)=O)C(=O)N[C@H](CO)C(=O)N[C@@H](C(=O)NCC(=O)N[C@@H](C(=O)N[C@H](CC(C)C)C(=O)N[C@H](CCC(N)=O)C(=O)N[C@H](CC(N)=O)C(=O)N[C@H](C)C(=O)N[C@H](CC(=O)O)C(=O)N[C@H](CCCCN)C(N)=O)[C@H](C)CC)[C@H](C)CC) [PRE 9]	L
Ac-KDAQNLI-NH2 [PRE 12]	L
